# activity at 3 µM per entry
molecular target: GATA4 transcriptional activity (Mus musculus); construct: expressed in transfected cells; host or cells: COS-1; test: GATA4 luciferase reporter assay (tandem GATA-site reporter, COS-1 cells); format: cell-based; conditions: COS-1; 3 µM, luciferase reporter activity, % of control

Molecule	activity at 3 µM
CCN(CC)c1ccc(NC(=O)c2c(-c3ccc(F)cc3)noc2C)cc1 [Compound 39d]	94.4%
C#CC[N+](CC)(CC)c1ccc(NC(=O)c2c(-c3ccccc3)noc2C)cc1 [Compound 77]	101%
CCN(CC)c1ccc(NC(=O)c2c(C)nc3ccccn23)cc1 [Compound 47ab]	127%
Cc1onc(-c2ccccc2)c1N=Cc1ccc(N(C)C)cc1 [SI108]	109%
CN(C)c1ccc(/N=C/c2c[nH]nc2-c2ccc(F)cc2)cc1 [Compound 75]	107%
Cc1onc(-c2ccccc2)c1C(=O)N(C1=NC(C)CS1)c1ccc(Cl)cc1 (stereo not shown) [Compound 2]	145%
CCN(CC)c1ccc(NC(=O)c2c(-c3ccccc3)noc2C)cc1 [Compound 1]	92.1%
Cc1onc(-c2ccccc2)c1COCc1ccc2ccccc2c1 [SI48]	96.5%
Cc1onc(-c2ccccc2)c1C(=O)Nc1ccc(-c2ccccc2)cc1 [Compound 4f]	102%
CCC(=O)c1ccc(OCc2c(-c3ccccc3)noc2C)cc1 [Compound 34a]	106%

* * *

biological target: GATA4–NKX2-5 transcriptional synergy (Mus musculus, UniProt P42582+Q08369); construct: expressed in transfected cells; host or cells: COS-1; experiment: GATA4–NKX2-5 transcriptional synergy luciferase reporter assay (3xNKE reporter, COS-1 cells); assay type: cell-based; settings: COS-1; compound 3 µM; luciferase reporter activity relative to control
Sequence (Q08369 whole entry): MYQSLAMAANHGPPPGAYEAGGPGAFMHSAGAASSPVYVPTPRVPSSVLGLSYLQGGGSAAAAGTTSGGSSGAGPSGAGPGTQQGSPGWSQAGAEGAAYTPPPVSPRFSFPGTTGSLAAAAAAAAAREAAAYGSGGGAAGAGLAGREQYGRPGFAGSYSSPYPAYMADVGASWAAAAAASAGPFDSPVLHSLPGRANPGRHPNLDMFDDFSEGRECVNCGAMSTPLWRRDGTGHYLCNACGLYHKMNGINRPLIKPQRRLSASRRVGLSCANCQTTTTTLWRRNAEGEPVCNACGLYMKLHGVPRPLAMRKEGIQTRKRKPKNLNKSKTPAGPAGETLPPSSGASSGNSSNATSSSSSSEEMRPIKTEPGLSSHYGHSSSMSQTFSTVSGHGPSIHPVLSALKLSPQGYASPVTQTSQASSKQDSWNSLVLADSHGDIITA
Sequence (P42582 whole entry): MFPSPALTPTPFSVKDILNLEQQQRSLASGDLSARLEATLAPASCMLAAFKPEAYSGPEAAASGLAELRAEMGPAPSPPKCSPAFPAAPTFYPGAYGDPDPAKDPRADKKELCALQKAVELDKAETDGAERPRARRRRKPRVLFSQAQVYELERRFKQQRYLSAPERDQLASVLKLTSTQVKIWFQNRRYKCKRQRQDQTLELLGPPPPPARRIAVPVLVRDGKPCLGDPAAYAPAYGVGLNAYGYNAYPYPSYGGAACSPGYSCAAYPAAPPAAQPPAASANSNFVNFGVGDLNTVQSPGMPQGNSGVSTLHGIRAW
Reported values of activity at 3 µM for individual entries
Reported Property: activity at 3 µM (%)

Compound	Recorded Measurement
CCN(CC)c1ccc(NC(=O)c2nnn(C)c2-c2ccccc2)cc1 [Compound 47p]	86.8
CCN(CC)c1ccc(N(CCF)C(=O)c2c(-c3ccccc3)noc2C)cc1 [Compound 25b]	81.6
Cc1onc(-c2ccccc2)c1COc1ccc(C(=O)OCc2ccoc2)cc1 [Compound 35c]	114
O=C(Nc1ccc2oc(-c3ccccc3)cc(=O)c2c1)c1cnsc1 [SI100]	112
CCCOC(=O)c1ccc(OCc2c(-c3ccccc3)noc2C)cc1 [Compound 34c]	97.7
Cc1noc(-c2ccccc2)c1C(=O)Nc1ccc(CN(C)C)cc1 [SI71]	109
CCN(CC)c1ccc(NC(=O)c2cnn(C)c2-c2ccccc2)cc1 [Compound 47e]	81.1
CCN(CC)c1ccc(N(CCOC)C(=O)c2c(-c3cccc([N+](=O)[O-])c3)noc2C)cc1 [SI30]	74.9
CCN(CC)c1ccc(NS(=O)(=O)c2c(-c3ccccc3)noc2C)cc1 [Compound 21]	104
CCN(CC)c1ccc(NC(=O)c2c(-c3ccccc3)nnn2C)cc1 [Compound 47o]	113

* * *

biological target: NKX2-5 transcriptional activity (Mus musculus); construct: expressed in transfected cells; host or cells: COS-1; experiment: NKX2-5 luciferase reporter assay (3xNKE reporter, COS-1 cells); type: cell-based; conditions: COS-1; 3 µM, luciferase reporter activity, % of control; read-out: NKX.3µM
activity at 3 µM values for the molecules below.
Reported Property: activity at 3 µM (%)

Molecule	Recorded Measurement
Cc1onc(-c2ccccc2)c1N=Cc1ccc(N(C)C)cc1	99.3
CCC(=O)c1ccc(OCc2c(-c3ccccc3)noc2C)cc1 [Compound 34a]	111
CCN(CC)c1ccc(NC(=O)c2c(C)nc3ccccn23)cc1 [Compound 47ab]	106
Cc1onc(-c2ccccc2)c1COCc1ccc2ccccc2c1	103
CCN(CC)c1ccc(NC(=O)c2c(-c3ccc(F)cc3)noc2C)cc1 [Compound 39d]	73.3
CN(C)c1ccc(/N=C/c2c[nH]nc2-c2ccc(F)cc2)cc1	108
Cc1onc(-c2ccccc2)c1C(=O)N(C1=NC(C)CS1)c1ccc(Cl)cc1 (stereo not shown)	102
CCN(CC)c1ccc(NC(=O)c2c(-c3ccccc3)noc2C)cc1	76
Cc1onc(-c2ccccc2)c1C(=O)Nc1ccc(-c2ccccc2)cc1	91
C#CC[N+](CC)(CC)c1ccc(NC(=O)c2c(-c3ccccc3)noc2C)cc1	97.9
